# System: p53^−/− CPT-11-resistant HCT116 cells
# measurement.description: MTT cytotoxicity assay, p53^−/− CPT-11-resistant HCT116 cells
# Assay type: cell-based, human
# condition.info: Homo sapiens, HCT-116; p53^−/− CPT-11-resistant, MTT, 72 h; read-out: IC50(72 h)
readout.name: IC50 (µM)

• CCc1c2c(nc3ccc(OC(=O)N4CCC(N5CCCCC5)CC4)cc13)-c1cc3c(c(=O)n1C2)COC(=O)[C@]3(O)CC = 200

* * *

# Test system: HCT116 p53^+/+ parental cells
# measurement.description: MTT cytotoxicity assay, HCT116 p53^+/+ parental cells
# Type: cell-based, human
# condition.info: HCT116 p53^+/+ parental, 72 h, read-out: IC50(72 h)
# Text: Tissue culture. HCT116 p53^+/+ and p53^−/− isogenic human colon cancer cells were kindly provided by Professor Bert Vogelstein (John Hopkins University, Baltimore, Md.). Drug-resistant HCT116 sub-lines were developed in the inventors' laboratory by repeated exposure to stepwise increasing concentrations of 5-FU, CPT-11 or oxaliplatin over a period of approximately ten months. […]
Quick reference for IC50 among some compounds
readout.name: IC50 (µM)

- N.N.O=C([O-])C1(C(=O)[O-])CCC1.[Pt+2]: 76
- O=c1[nH]cc(F)c(=O)[nH]1: 4.3
- O=C1[O][Pt]2([NH][C@@H]3CCCC[C@H]3[NH]2)[O]C1=O: 0.3
- N.N.[Cl][Pt][Cl] [cisplatin]: 5.4

* * *

# System: p53^+/+ oxaliplatin-resistant HCT116 cells
# measurement.description: MTT cytotoxicity assay, p53^+/+ oxaliplatin-resistant HCT116 cells
# Format: cell-based, human
# condition.info: Homo sapiens, HCT-116; p53^+/+ oxaliplatin-resistant, MTT, 72 h; read-out: IC50(72 h)
pIC50: −log10 of the molar value.
readout.name: pIC50

* CCc1c2c(nc3ccc(OC(=O)N4CCC(N5CCCCC5)CC4)cc13)-c1cc3c(c(=O)n1C2)COC(=O)[C@]3(O)CC | 5.54

* * *

# Tested on: p53^+/+ oxaliplatin-resistant HCT116 cells
# measurement.description: MTT cytotoxicity assay, p53^+/+ oxaliplatin-resistant HCT116 cells
# Type: cell-based, human
# condition.info: p53^+/+ oxaliplatin-resistant, MTT, 72 h; read-out: IC50(72 h)
# Source text: Tissue culture. HCT116 p53^+/+ and p53^−/− isogenic human colon cancer cells were kindly provided by Professor Bert Vogelstein (John Hopkins University, Baltimore, Md.). Drug-resistant HCT116 sub-lines were developed in the inventors' laboratory by repeated exposure to stepwise increasing concentrations of 5-FU, CPT-11 or oxaliplatin over a period of approximately ten months. […]
pIC50: −log10 of the molar value.
readout.name: pIC50

- O=c1[nH]cc(F)c(=O)[nH]1: 5.44
- O=C1[O][Pt]2([NH][C@@H]3CCCC[C@H]3[NH]2)[O]C1=O: 5.03
- N.N.[Cl][Pt][Cl] [cisplatin]: 5.14
- N.N.O=C([O-])C1(C(=O)[O-])CCC1.[Pt+2]: 3.75

* * *

# System: HCT116 p53^−/− parental cells
# measurement.description: MTT cytotoxicity assay, HCT116 p53^−/− parental cells
# Assay type: cell-based, human
# condition.info: p53^−/− Parental, MTT, 72 h; read-out: SN-38 IC50(72 h)
pIC50: −log10 of the molar value.
readout.name: pIC50

* CCc1c2c(nc3ccc(O)cc13)-c1cc3c(c(=O)n1C2)COC(=O)[C@]3(O)CC [SN-38] | 8.38

* * *

Quick reference for IC50 among some compounds
# System: HCT116 p53^−/− parental cells
# measurement.description: MTT cytotoxicity assay, HCT116 p53^−/− parental cells
# Type: cell-based, human
# condition.info: HCT116 p53^−/− parental, MTT, 72 h; read-out: IC50(72 h)
readout.name: IC50 (µM)

* N.N.[Cl][Pt][Cl] [cisplatin] | 5.7
* N.N.O=C([O-])C1(C(=O)[O-])CCC1.[Pt+2] [carboplatin] | 78.7
* O=C1[O][Pt]2([NH][C@@H]3CCCC[C@H]3[NH]2)[O]C1=O [oxaliplatin] | 1.7
* O=c1[nH]cc(F)c(=O)[nH]1 [5-FU] | 19.7

* * *

Quick reference for pIC50 among some compounds
# Tested on: p53^−/− CPT-11-resistant HCT116 cells
# measurement.description: MTT cytotoxicity assay, p53^−/− CPT-11-resistant HCT116 cells
# Format: cell-based, human
# condition.info: p53^−/− CPT-11-resistant, MTT, 72 h; read-out: IC50(72 h)
pIC50: −log10 of the molar value.
readout.name: pIC50

• O=C1[O][Pt]2([NH][C@@H]3CCCC[C@H]3[NH]2)[O]C1=O [oxaliplatin] = 5.77
• O=c1[nH]cc(F)c(=O)[nH]1 [5-FU] = 4.33
